Origin of values: PubChem BioAssay (NCI)

- Test system: UACC-62 melanoma
- TEST DETAILS: NCI tumour cell line growth inhibition, 48 h
READOUT LABEL: TGI

{"columns": ["COMPOUND", "READOUT LABEL", "RESULT"],
 "data": [
  ["c1csc(-c2ccsc2-c2cccs2)c1", "TGI", "> 100 µM"],
  ["O=C1CC(c2ccccc2)=Nc2ccccc2N1", "TGI", "> 100 µM"],
  ["O=C1C(c2ccc(Br)cc2)=[N+]([O-])c2ccccc21", "TGI", "29.7 µM"],
  ["N/C(=N\\N=C\\c1ccc(C(F)(F)F)cc1)NO", "TGI", "21.7 µM"],
  ["CC(C)(C)OC(=O)CN1CCNCCN(CC(=O)OC(C)(C)C)CCNCC1", "TGI", "> 100 µM"],
  ["O=C1N2Cc3c4ccc5c3CN3C(=O)N6Cc7c(ccc(c7CN1C6(c1ccccc1)C23c1ccccc1)OCCOCCNCCOCCO4)OCCOCCNCCOCCO5 (configuration not stated)", "TGI", "> 100 µM"],
  ["O=C(c1ccccc1)C1S(=O)(=O)OCCOS1(=O)=O", "TGI", "> 100 µM"]
]}
